# TARGET UNDER TEST: rat NaPi-2b (Rattus norvegicus, UniProt Q9JJ09)
# Sequence (Q9JJ09 1-695): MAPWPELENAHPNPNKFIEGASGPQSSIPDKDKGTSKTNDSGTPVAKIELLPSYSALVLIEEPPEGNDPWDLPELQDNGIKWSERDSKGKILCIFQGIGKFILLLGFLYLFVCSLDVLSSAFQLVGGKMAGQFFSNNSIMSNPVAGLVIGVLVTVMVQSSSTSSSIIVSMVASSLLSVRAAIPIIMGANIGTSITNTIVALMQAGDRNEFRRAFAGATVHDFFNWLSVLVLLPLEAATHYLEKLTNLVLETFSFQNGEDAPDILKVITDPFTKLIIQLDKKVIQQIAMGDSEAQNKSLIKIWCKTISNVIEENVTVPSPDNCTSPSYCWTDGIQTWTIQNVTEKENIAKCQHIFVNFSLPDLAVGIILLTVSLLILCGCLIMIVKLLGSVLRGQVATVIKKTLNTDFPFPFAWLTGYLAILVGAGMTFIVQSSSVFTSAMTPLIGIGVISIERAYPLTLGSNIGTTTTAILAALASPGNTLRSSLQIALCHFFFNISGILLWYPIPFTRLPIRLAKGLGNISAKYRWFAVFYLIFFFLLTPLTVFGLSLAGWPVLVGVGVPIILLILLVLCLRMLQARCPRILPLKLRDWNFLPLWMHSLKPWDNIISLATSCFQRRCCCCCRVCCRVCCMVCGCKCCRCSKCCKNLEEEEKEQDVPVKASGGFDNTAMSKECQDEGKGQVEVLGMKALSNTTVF
# EXPERIMENTAL PROTOCOL: Sodium-dependent phosphate uptake of Xenopus oocytes which expressed NaPi-2b (32P)
# CONDITION NOTES: Xenopus oocytes expressing rat NaPi-2b, 32P radioactive phosphorus; read-out: IC50 (phosphate uptake inhibitory activity)
# Protocol: Pharmacological Test Example 1 Experiment of Sodium-Dependent Phosphate Uptake of Xenopus oocytes which Expressed NaPi-2b Degenerate primers were prepared from sequences of mouse NaPi-2b disclosed in Hilfiker H. et al., Pro Natl Acad Sci USA, 95 (24): 14564-14569, […] and sequences of human and rat NaPi-2a disclosed in Magagnin S. et al., Proc Natl Aca Sci USA, 90 (13): 5979-5983, 1993. RNA was extracted from the rat small intestine using ISOGEN; manufactured by NIPPON GENE CO., LTD (Japan). […]
REPORTED ENDPOINT: IC50 (µM)
Only the number, expressed in µM, is required.

Data request, read-out IC50, for Cc1ccc(/C=N/NC(=O)c2cc(Cl)ccc2NC(=O)c2cccc(CSCC(O)CO)c2)cc1 (centres unmarked) [Compound 1008] 0.3

Name the reported IC50 value associated with the molecule Cn1cccc1/C=N/NC(=O)c1cc(Br)ccc1NC(=O)c1cccnc1 [Compound 211] 69.1

Return reported IC50; argument: COc1cc(OC)cc(C(=O)Nc2ccccc2C(=O)N/N=C/c2ccc(C)cc2)c1 [Compound 57] 1.02

What value of measured IC50 is listed for O=C(Nc1ccc(Br)cc1C(=O)N/N=C/C=C/c1ccccc1)c1cccnc1 [Compound 346] ? 4.46

Given the molecule COc1ccc(C(=O)Nc2ccccc2C(=O)N/N=C/c2cc(C(C)(C)C)c(O)c(C(C)(C)C)c2)cc1OC [Compound 6] , what is its reported IC50? 5.38

Data provenance is patent US8134015B2.
